- Tested on: T-47D cells
- test.description: Caspase cascade activation / induction of apoptosis in T-47D cells (fluorogenic N-(Ac-DEVD)-N'-ethoxycarbonyl-R110 substrate)
- Assay type: cell-based, human
- condition.summary: Homo sapiens, T47D; T-47D, 24 hr; read-out: T-47D (24 hr) EC50
assay.endpoint: EC50 (nM)
# number only, unit nM dropped from output

{"columns": ["compound.smiles", "assayed.system", "assay.endpoint", "numeric.readout"],
 "data": [
  ["COc1ccc(N(C)c2nc(N)nc3[nH]cnc23)cc1", "T-47D cells", "EC50", 7940]
]}

Qu. For the record COc1ccc(N(C)c2nc(N)nc3ccccc23)cc1 , what value of EC50 is listed for T-47D cells?
Ans. 8

Qu. For the record CN(c1ccc(OC(F)(F)F)cc1)c1nc(Cl)nc2ccccc12 , what value of EC50 is listed for T-47D cells?
Ans. 24

Qu. For the record CN(c1ccc(Cl)cc1)c1nc(Cl)nc2ccccc12 , what value of EC50 is listed for T-47D cells?
Ans. 79

----------
Here the recorded pIC50 is given for each entry.
- Tested on: P388 murine leukemia cell line
- test.description: P388 cytotoxicity (ATP-Lite, 72 hours)
- Format: cell-based
- condition.summary: Mus musculus, P388, 72 hours
- Description: A P388 murine leukemia cell line was obtained from NCI, Frederick, Md. P388 cells were cultured in RPMI-1640 supplemented with 10% fetal bovine serum, 2 mM Glutamax, 1 mM sodium pyruvate, 0.1 mM non-essential amino acids and 10 mM HEPES. […] Cellular viability was determined 72 hours later by measuring intracellular ATP with ATP-Lite assay system. The effect of compounds on cell viability was calculated by comparing the ATP levels of cells exposed to test compound with those of cells exposed to DMSO. […]
Structures can show the parent of a compound that is named as a salt.
Friendly reminder that pIC50 comes from taking -log10 of the concentration in mol/L.

Qu. Consider the compound Cc1nc(N(C)c2ccc(OC(F)F)cc2)c2cc([N+](=O)[O-])ccc2n1 and give its measured pIC50.
Ans. 6.31

Qu. Consider the compound COc1ccc(N(C)c2nc(NCCCCO)nc3ccccc23)cc1 and give its measured pIC50.
Ans. 7.89

Qu. Consider the compound COc1ccc(N(C)c2nc(C)nc3ccsc23)cc1 and give its measured pIC50.
Ans. 8.15

Qu. Consider the compound COc1ccc(N(C)c2nc(C)nc3ccc([N+](=O)[O-])cc23)cc1F and give its measured pIC50.
Ans. 7.24

Qu. Consider the compound CCOc1ccc(N(C)c2nc(CN)nc3ccccc23)cc1Cl [Example 261, bis(hydrochloride)] and give its measured pIC50.
Ans. 8.05

Qu. Consider the compound CCOc1ccc(N(C)c2nc(CN)nc3cccc(F)c23)cc1 and give its measured pIC50.
Ans. 7.66

Qu. Consider the compound COc1ccc(N(C)c2nc(CN3CCCCC3=O)nc3ccccc23)cc1 and give its measured pIC50.
Ans. 6.00

Qu. Consider the compound CCOc1ccc(N(C)c2nc(C)nc3ccc(Br)cc23)cc1F and give its measured pIC50.
Ans. 7.96

Qu. Consider the compound COc1ccc(N(C)c2nc(CC#N)nc3ccccc23)cc1 and give its measured pIC50.
Ans. 8.70

----------
- Tested on: P388 murine leukemia cell line
- test.description: P388 cytotoxicity (ATP-Lite, 72 hours)
- Format: cell-based
- condition.summary: Mus musculus, P388, 72 hours
- Experimental: A P388 murine leukemia cell line was obtained from NCI, Frederick, Md. P388 cells were cultured in RPMI-1640 supplemented with 10% fetal bovine serum, 2 mM Glutamax, 1 mM sodium pyruvate, 0.1 mM non-essential amino acids and 10 mM HEPES. […] Cellular viability was determined 72 hours later by measuring intracellular ATP with ATP-Lite assay system. The effect of compounds on cell viability was calculated by comparing the ATP levels of cells exposed to test compound with those of cells exposed to DMSO. […]
assay.endpoint: log10(IC50) (log10 of the value in nM)
Scale: decimal log of IC50, IC50 in nM.

The following compounds have reported results that may help.
{"columns": ["compound", "assayed.system", "numeric.readout"],
 "data": [
  ["CCOc1ccc(N(C)c2nc(CN3C(=O)c4ccccc4C3=O)nc3ccccc23)cc1Cl [Example 260]", "P388 murine leukemia cell line", 2.67],
  ["COc1ccc(N(C)c2nc(CCl)nc3ccc(Br)cc23)cc1 [Example 208]", "P388 murine leukemia cell line", 1.43],
  ["CN(c1ccc(O)cc1)c1nc(CN)nc2ccccc12 [Example 230]", "P388 murine leukemia cell line", 3.23]
]}

Qu. Consider the compound CC(C)Oc1ccc(N(C)c2nc(CN)nc3ccccc23)cc1 [Example 217] and give its measured log10(IC50).
Ans. 1.26

Qu. Consider the compound CNc1nc(N(C)c2ccc(OC)c(OC)c2)c2ccccc2n1 [Example 167] and give its measured log10(IC50).
Ans. 1.18

Qu. Consider the compound COc1ccc(N(C)c2nc(NCCCCN)nc3ccccc23)cc1 [Example 184] and give its measured log10(IC50).
Ans. 2.70

Qu. Consider the compound CC(C)Oc1ccc(N(C)c2nc(CN)nc3ccc(N)cc23)cc1 [Example 220] and give its measured log10(IC50).
Ans. 2.94

Qu. Consider the compound CCOC(=O)CNc1nc2c(c(N(C)c3ccc(OC)cc3)n1)CCC2 [Example 202] and give its measured log10(IC50).
Ans. 2.48

Qu. Consider the compound COc1ccc(N(C)c2nc(N(C)CCCN(C)C)nc3ccccc23)cc1 [Example 183] and give its measured log10(IC50).
Ans. 2.69

Qu. Consider the compound CCOc1nc(N(C)c2ccc(OC)cc2)c2ccccc2n1 [Example 182] and give its measured log10(IC50).
Ans. 3.36
